test system: normal Human Adult Primary Epidermal Keratinocyte cell line; conditions: 72 h, 0.62 μM
VALUE_KIND: Cell Viability
Give bare numbers.

CC12CCC(=O)C=C1C[C@@H](SC(=O)CC13CC4CC(CC(C4)C1)C3)C1C2CCC2(C)C1CC[C@@]21CCC(=O)O1 (stereo partly shown) = 92.16
CC(=O)N1CCN(c2ccc(OC[C@H]3CO[C@](Cn4ccnc4)(c4ccc(Cl)cc4Cl)O3)cc2)CC1 (racemic) = 93.61
O=C(Nc1ccc([N+](=O)[O-])cc1Cl)c1cc(Cl)ccc1O [Niclosamide] = 34.13

Next compound, please.
Req: // Input: CC(=O)S[C@@H]1CC2=CC(=O)CC[C@]2(C)[C@H]2CC[C@@]3(C)[C@@H](CC[C@@]34CCC(=O)O4)[C@H]12 . Output its Cell Viability only.
Resp: 113.05

###

Would you kindly list Cell Viability for each of these compounds?
test system: normal Human Adult Primary Epidermal Keratinocyte cell line; conditions: 72 h, 16.67 μM
Numbers only.

CC(=O)N1CCN(c2ccc(OC[C@H]3CO[C@](Cn4ccnc4)(c4ccc(Cl)cc4Cl)O3)cc2)CC1 (racemic) = 41.59
CC12CCC(=O)C=C1C[C@@H](SC(=O)CC13CC4CC(CC(C4)C1)C3)C1C2CCC2(C)C1CC[C@@]21CCC(=O)O1 (stereo partly shown) = 55.11
O=C(Nc1ccc([N+](=O)[O-])cc1Cl)c1cc(Cl)ccc1O [Niclosamide] = 15.93

Req: // Input: CC(=O)S[C@@H]1CC2=CC(=O)CC[C@]2(C)[C@H]2CC[C@@]3(C)[C@@H](CC[C@@]34CCC(=O)O4)[C@H]12 . Output its Cell Viability only.
Resp: 82.73

###

tested on: normal Human Adult Primary Epidermal Keratinocyte cell line; settings: 72 h, 50 μM
VALUE_KIND: Cell Viability
Give bare numbers.

Please give Cell Viability for each item listed below.
1. CC(=O)S[C@@H]1CC2=CC(=O)CC[C@]2(C)[C@H]2CC[C@@]3(C)[C@@H](CC[C@@]34CCC(=O)O4)[C@H]12
2. O=C(Nc1ccc([N+](=O)[O-])cc1Cl)c1cc(Cl)ccc1O [Niclosamide]
3. CC12CCC(=O)C=C1C[C@@H](SC(=O)CC13CC4CC(CC(C4)C1)C3)C1C2CCC2(C)C1CC[C@@]21CCC(=O)O1 (stereo partly shown)
4. CC(=O)N1CCN(c2ccc(OC[C@H]3CO[C@](Cn4ccnc4)(c4ccc(Cl)cc4Cl)O3)cc2)CC1 (racemic)

Resp:
58.33
0.20
38.67
7.29

###

system: normal Human Adult Primary Epidermal Keratinocyte cell line; conditions: 72 h, 1.85 μM
Would you kindly list Cell Viability for each of these compounds?

Previously resolved entries follow.
CC(=O)N1CCN(c2ccc(OC[C@H]3CO[C@](Cn4ccnc4)(c4ccc(Cl)cc4Cl)O3)cc2)CC1 (racemic) = 90.96 ± 2.34
CC12CCC(=O)C=C1C[C@@H](SC(=O)CC13CC4CC(CC(C4)C1)C3)C1C2CCC2(C)C1CC[C@@]21CCC(=O)O1 (stereo partly shown) = 73.46 ± 1.11

Please give Cell Viability for each item listed below.
1. O=C(Nc1ccc([N+](=O)[O-])cc1Cl)c1cc(Cl)ccc1O [Niclosamide]
2. CC(=O)S[C@@H]1CC2=CC(=O)CC[C@]2(C)[C@H]2CC[C@@]3(C)[C@@H](CC[C@@]34CCC(=O)O4)[C@H]12

Resp:
["30.65 ± 5.98", "108.09 ± 1.79"]

###

target: androgen receptor (AR) (Homo sapiens, UniProt P10275); construct: human keratinocytes transfected with an AR luciferase reporter gene; endogenous in cells; host or cells: normal human adult primary epidermal keratinocytes (ATCC PCS-200-011); experiment: Keratinocyte AR Reporter Gene Assay, 24 and 72 hours continuous exposure (Example 12); type: cell-based; conditions: 24-hr treatment, keratinocytes
Sequence (P10275 whole entry): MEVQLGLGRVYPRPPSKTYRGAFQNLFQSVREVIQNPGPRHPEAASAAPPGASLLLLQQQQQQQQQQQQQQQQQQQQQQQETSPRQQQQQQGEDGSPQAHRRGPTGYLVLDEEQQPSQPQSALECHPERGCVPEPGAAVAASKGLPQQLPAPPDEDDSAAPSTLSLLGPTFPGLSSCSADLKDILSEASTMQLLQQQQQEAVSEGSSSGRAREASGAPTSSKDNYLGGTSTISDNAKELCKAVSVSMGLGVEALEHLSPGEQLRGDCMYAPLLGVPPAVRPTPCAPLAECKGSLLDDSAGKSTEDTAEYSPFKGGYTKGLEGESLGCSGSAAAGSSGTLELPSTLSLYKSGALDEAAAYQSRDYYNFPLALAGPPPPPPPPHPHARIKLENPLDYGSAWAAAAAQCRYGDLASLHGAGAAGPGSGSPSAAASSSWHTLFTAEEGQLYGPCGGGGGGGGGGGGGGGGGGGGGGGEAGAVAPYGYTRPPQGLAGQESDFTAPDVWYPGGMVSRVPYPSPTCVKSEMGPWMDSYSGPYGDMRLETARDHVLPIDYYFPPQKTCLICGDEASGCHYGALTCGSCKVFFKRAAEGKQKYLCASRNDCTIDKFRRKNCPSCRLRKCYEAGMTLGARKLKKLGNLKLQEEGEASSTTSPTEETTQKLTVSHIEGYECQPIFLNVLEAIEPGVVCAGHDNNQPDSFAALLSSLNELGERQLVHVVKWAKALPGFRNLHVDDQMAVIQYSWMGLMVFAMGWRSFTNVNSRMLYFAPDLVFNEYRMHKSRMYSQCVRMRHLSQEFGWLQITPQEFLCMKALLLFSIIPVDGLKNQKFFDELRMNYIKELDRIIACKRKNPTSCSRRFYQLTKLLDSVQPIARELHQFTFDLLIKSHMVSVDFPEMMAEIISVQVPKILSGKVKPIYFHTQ
VALUE_KIND: IC50
Entry format: amount then unit.

Req: Provide IC50, recorded with androgen receptor (AR) (Homo sapiens, UniProt P10275), of CC12CCC(=O)C=C1C[C@@H](SC(=O)CC13CC4CC(CC(C4)C1)C3)C1C2CCC2(C)C1CC[C@@]21CCC(=O)O1 (stereo partly shown)
Resp: 3.7 µM
